The measurements presented in this section are drawn from ChEMBL document CHEMBL1201862.

Tested on: A549
Assay: NCI tumour cell line growth inhibition, 48 h
Active and inactive are the calls of the source. No stated cut-off is given here; in the data, active = GI50 up to about 1.1 µM and inactive = higher.
Quantity Name: GI50

INSERT INTO results (compound, observed_measurement) VALUES
  ('COc1ccc(/N=N/C(=O)NC(CC(C)C)C(=O)NC(CC(C)C)C(=O)O)cc1 (stereo unspecified)', '38.9 µM (inactive)'),
  ('Cc1ccc(N(O)C(C)(C)C)cc1', '> 100 µM (inactive)'),
  ('O=S(O)CCCCSSCc1ccccc1CSSCCCCS(=O)O', '28.8 µM (inactive)'),
  ('COc1cc(CNC(=O)[C@H](Cc2ccc(O)cn2)NC(C)=O)cc(OC)c1', '> 100 µM (inactive)');

# compound `O=C1Cc2c([nH]c3ccc(Cl)cc23)-c2ccccc2N1` ; its GI50 = > 100 µM (inactive)

* * *

System: UO-31
Experiment: NCI tumour cell line growth inhibition, 48 h
The source made the active and inactive calls. Cut-off read from the data, not from the text of the source: active = GI50 up to about 1.1 µM and inactive = higher.
Classes to choose from: class 1 = active, class 0 = inactive

INSERT INTO assay_data (compound, category_label) VALUES
  ('Cc1ccc(S(=O)(=O)n2c(-c3ccccc3)c(-c3ccccc3)c3ccccc32)cc1', 'class 0');

Call for entry `COc1ccc(/C=c2\s/c(=C3/SC(=S)N(c4ccccc4)C3=O)n(-c3ccccc3)c2=O)cc1` :
class 0

* * *

Test system: SN12C
Assay: NCI tumour cell line growth inhibition, 48 h
Activity calls are given as the source filed them. Rule as the data show it: active = GI50 up to about 1.1 µM and inactive = higher.
Listed here are compounds together with their documented GI50.

Consider the worked cases shown below.
INSERT INTO results (compound, observed_measurement) VALUES
  ('Cc1ccc(/C=C2\CCCC(CN3CCCCC3)C2=O)cc1 (configuration not stated)', '2.96 µM (inactive)'),
  ('O=C1CCC2CCc3cccc4oc1c2c34 (configuration not stated)', '> 100 µM (inactive)'),
  ('CN(C)c1ccc(C2ON=C(c3ccccc3)N2C23CC4CC(CC(C4)C2)C3)cc1 (configuration not stated)', '> 10 µM (inactive)'),
  ('Cc1nnc2sc(Cl)nn12', '32.4 µM (inactive)');

Looking up `CCOc1cccc2cccnc12` , I found its GI50 recorded as > 100 µM (inactive)

Looking up `O=[N+]([O-])c1ccc(-c2cc(O)c3nc4ccccc4n3c2)cc1` , I found its GI50 recorded as > 100 µM (inactive)

GET /value?item= CCOC(=O)C1Sc2ccccc2N=C1C (configuration not stated) &field=GI50 returns > 100 µM (inactive)

* * *

Tested on: SK-MEL-5
Assay: NCI tumour cell line growth inhibition, 48 h
The source made the active and inactive calls. Cut-off read from the data, not from the text of the source: active = GI50 up to about 1.1 µM and inactive = higher.
Items are presented alongside their recorded GI50.

INSERT INTO assay_data (molecule, study_target, quantity_name, observed_measurement) VALUES
  ('CN(C)c1ccc(/C=C2\N=C(c3ccc(N)cc3)OC2=O)cc1', 'SK-MEL-5', 'GI50', '> 100 µM (inactive)'),
  ('CC(C)CC(C#CCCOC(=O)c1ccccc1)OC(=O)c1ccccc1 (centres undefined)', 'SK-MEL-5', 'GI50', '> 10 µM (inactive)'),
  ('CC(=O)NCCc1c[nH]c2ccc(Cl)cc12', 'SK-MEL-5', 'GI50', '> 100 µM (inactive)'),
  ('COc1cc2oc(-c3ccc4c(c3)OCO4)c(OC)c(=O)c2c(OC)c1OC', 'SK-MEL-5', 'GI50', '51.5 µM (inactive)');

Consider now this further molecule.
According to the records, this molecule CC(=O)O[C@H]1CCC2[C@@H]3CC[C@]4(C)CC(=O)C=C[C@]4(C)C3CC[C@@]21C (some centres undefined) displays GI50 of 14.8 µM (inactive)
